Below, each entry is listed alongside its reported Potency.
# procedureSummary: qHTS for characterization and localization of zebrafish homologs of the human ABCB1 multidrug transporter: empty vector transfected cells
# experimentalSetup: empty vector transfected control cells, CellTiter-Glo luminescence viability, 72 h; series mostly up to 46.1 µM
# Procedure: The zebrafish has emerged as a potential model to study the blood-brain barrier (BBB) given its similarities with mammalian systems. […] A high-throughput screen was performed as previously described on empty vector transfected cells, P-gp-overexpressing MDR-19 cells and cells transfected with full-length zebrafish abcb4 (ZF Abcb4) or abcb5 (ZF Abcb5). […] CellTiter-Glo reagent (Promega) was dispensed into the wells, incubated for 5 min and luminescence was read on a ViewLux instrument (Perkin-Elmer). […]
Records with an inconclusive call do not appear. The source made the active and inactive calls. The call rests on the fitted dose curve; in most records, active means well fitted inhibition curve with a large enough effect; inconclusive means small, poorly fitted or top-dose-only effect; inactive means flat fitted curve, though single readings scatter.

Known results for compounds:
| inputSmiles | experimentalResult |
| --- | --- |
| CCc1c(O)cc(O)c(C(=O)c2ccc(OCCN3CCOCC3)c(OC)c2)c1CC(=O)N(CCOC)CCOC | 743 nM (active) |
| CC(C)C[C@H](NC(=O)[C@@H](NC(=O)c1cccc(-c2ccccc2)n1)[C@@H](C)O)B(O)O | 74.3 nM (active) |
| CC[C@@]1([C@@H]2O[C@@H]([C@H]3O[C@@](O)(CO)[C@H](C)C[C@@H]3C)C[C@@H]2C)CC[C@H]([C@]2(C)CC[C@]3(C[C@H](O)[C@@H](C)[C@@H]([C@@H](C)[C@@H](OC)[C@H](C)C(=O)O)O3)O2)O1 | 148 nM (active) |

Query: May I ask what Potency has been recorded for CCCCc1nc2cc(C=CC(=O)NO)ccc2n1CCN(CC)CC ?
Result: 3320 nM (active)

----------
# procedureSummary: qHTS for characterization and localization of zebrafish homologs of the human ABCB1 multidrug transporter: empty vector transfected cells
# experimentalSetup: empty vector transfected control cells, CellTiter-Glo luminescence viability, 72 h; series mostly up to 46.1 µM
Inconclusive results are not listed. The source made the active and inactive calls. Calls follow the shape of the dose curve; as a rule, active = well fitted inhibition curve with a large enough effect; inconclusive = small, poorly fitted or top-dose-only effect; inactive = flat fitted curve, though single readings scatter.
Give one outcome, nothing more. List: active, inactive

| inputSmiles | qualitativeLabel |
| --- | --- |
| C[C@@H](Oc1cc(-n2cnc3ccc(CN4CCN(C)CC4)cc32)sc1C(N)=O)c1ccccc1C(F)(F)F | active |
| CC[C@@H]1C(=O)N(C)c2cnc(Nc3ccc(C(=O)NC4CCN(C)CC4)cc3OC)nc2N1C1CCCC1 | active |
| CCN(CCCO)CCCOc1ccc2c(Nc3cc(CC(=O)Nc4cccc(F)c4)[nH]n3)ncnc2c1 | inactive |

# ---- query molecule ----
Query: Recorded test call requested for Cc1cc(Nc2cc(N3CCN(C)CC3)nc(Sc3ccc(NC(=O)C4CC4)cc3)n2)n[nH]1
Result: active

----------
Below, each entry is listed alongside its reported Potency.
# procedureSummary: qHTS for characterization and localization of zebrafish homologs of the human ABCB1 multidrug transporter: empty vector transfected cells
# experimentalSetup: empty vector transfected control cells, CellTiter-Glo luminescence viability, 72 h; series mostly up to 46.1 µM
Inconclusive results are not listed. Activity calls are given as the source filed them. Calls come from the whole dose curve; as a rule, active = well fitted inhibition curve with a large enough effect; inconclusive = small, poorly fitted or top-dose-only effect; inactive = flat fitted curve, though single readings scatter. Starred links: 1 amine or outer side, 2 acyl side, 3 side chain; linkers in the order of their positions; H or OH if unused. Positions of bridges follow the written chain, without caps; N, C: chain ends. Non-standard residues stand in square brackets, D forms with d. Residues, ends and D or L forms follow the SMILES beside them. Chains are numbered I, II in the order given. ξ: configuration not given here. Actinocin(9to1) = Cc1c2oc3c(C)ccc(C(=O)[*:1])c3nc-2c(C(=O)[*:2])c(N)c1=O; ξNMeV = CNC(C(=O)O)C(C)C; ξV = CC(C)C(N)C(=O)O; Sar = CNCC(=O)O

| compound | experimentalResult |
| --- | --- |
| COC[C@H](NC(=O)c1cnc(C)s1)C(=O)N[C@@H](COC)C(=O)N[C@@H](Cc1ccccc1)C(=O)[C@@]1(C)CO1 | 166 nM (active) |
| C/C=C1/NC(=O)C2CSSCCC=CC(CC(=O)NC(C(C)C)C(=O)N2)OC(=O)C(C(C)C)NC1=O (centres undefined) | 52.6 nM (active) |
| Cc1c2oc3c(C)ccc(C(=O)N[C@@H]4C(=O)NC(C(C)C)C(=O)N5CCC[C@H]5C(=O)N(C)CC(=O)N(C)C(C(C)C)C(=O)O[C@@H]4C)c3nc-2c(C(=O)N[C@@H]2C(=O)NC(C(C)C)C(=O)N3CCC[C@H]3C(=O)N(C)CC(=O)N(C)C(C(C)C)C(=O)O[C@@H]2C)c(N)c1=O (some centres undefined) (I: T[ξV]P[Sar][ξNMeV] / II: T[ξV]P[Sar][ξNMeV]; ester I:1-I:C, II:1-II:C; linker I:N-II:N via Actinocin(9to1)) | 7.4 nM (active) |
| NC(=O)Nc1cc(-c2cccc(F)c2)sc1C(=O)N[C@H]1CCCNC1 | 590 nM (active) |
| CN(C)C/C=C/C(=O)Nc1cccc(C(=O)Nc2ccc(Nc3nccc(-c4cccnc4)n3)cc2)c1 | 18700 nM (active) |

Query: May I ask what Potency has been recorded for Cc1nc(Nc2n[nH]c3c2CN(C(=O)N[C@H](CN(C)C)c2ccccc2)C3(C)C)c2sccc2n1 ?
Result: 41.8 nM (active)

Query: Then this compound: C[C@@H]1O[C@@H](O[C@H]2[C@H](O)[C@@H](O)[C@H](O[C@H]3[C@H](O[C@H]4CC[C@@]5(C)C(=CC[C@@H]6C5CC[C@]5(C)[C@@H]7[C@H](C[C@@H]65)O[C@]5(CC[C@@](C)(CO[C@@H]6O[C@H](CO)[C@@H](O)[C@H](O)[C@H]6O)O5)[C@H]7C)C4)O[C@H](CO)[C@@H](O)[C@@H]3O)O[C@@H]2CO)[C@H](O)[C@H](O)[C@H]1O (some centres undefined)
Result: 353 nM (active)

Query: Then this compound: C[C@@H]1O[C@@H](O[C@H]2[C@@H](OC(=O)[C@]34CCC(C)(C)CC3C3=CCC5[C@@]6(C)C[C@H](O)[C@H](O[C@@H]7O[C@H](CO)[C@@H](O)[C@H](O)[C@H]7O[C@@H]7OC[C@@H](O)[C@H](O)[C@H]7O)[C@@](C)(C(=O)O)C6CC[C@@]5(C)[C@]3(C)CC4)OC[C@H](O)[C@@H]2O)[C@H](O)[C@H](O)[C@H]1O[C@@H]1OC[C@@H](O)[C@H](O)[C@H]1O (some centres undefined)
Result: 1980 nM (active)

Provenance of the data: PubChem BioAssay AID1508637
